Test system: A498 renal
TEST_METHOD_NOTES: NCI tumour cell line growth inhibition, 48 h
MEASUREMENT_KIND: TGI

[[record]]
compound = "CCC1OCCN1C(C)C (stereo unspecified)"
result_value = "> 100 µM"

[[record]]
compound = "COc1ccc(/C=N/Nc2[nH]c(=S)nc3[nH]ncc23)cc1"
result_value = "> 100 µM"

[[record]]
compound = "COc1cc(OC)c(CSCC(NC(=O)OCC2c3ccccc3-c3ccccc32)C(=O)O)c(OC)c1 (stereo unspecified)"
result_value = "> 10 µM"

[[record]]
compound = "COc1cc(C2C(Cl)C(=O)N2c2ccc(Br)cc2)cc(I)c1O (stereo unspecified)"
result_value = "> 100 µM"

[[record]]
compound = "c1ccc2c3c(ccc2c1)CSCc1ccc2ccccc2c1-3"
result_value = "> 100 µM"

[[record]]
compound = "CN(C)CCCn1c2ccccc2c2cnccc21"
result_value = "> 100 µM"


* * *

Tested on: OVCAR-4 ovarian
TEST_METHOD_NOTES: NCI tumour cell line growth inhibition, 48 h
MEASUREMENT_KIND: TGI

[[record]]
compound = "Cc1ccc(S(=O)(=O)Nn2c(-c3ccccc3)c(C#N)c(-c3ccc([N+](=O)[O-])cc3)c(C#N)c2=O)cc1"
measurement_kind = "TGI"
result_value = "> 100 µM"

[[record]]
compound = "NC(Cc1nn[nH]n1)C(=O)O (stereo not given)"
measurement_kind = "TGI"
result_value = "> 100 µM"

[[record]]
compound = "CCOC(=O)c1cnc2[nH]c(=O)c3ccccc3n2c1=O"
measurement_kind = "TGI"
result_value = "> 100 µM"

[[record]]
compound = "CN(C)c1ccc(C(=NNC(=O)c2cc3ccccc3[nH]2)c2ccc(N(C)C)cc2)cc1"
measurement_kind = "TGI"
result_value = "> 100 µM"

[[record]]
compound = "CC(=O)[CH-]C(=O)c1ccccc1.CC(=O)[CH-]C(=O)c1ccccc1.[O]=[U+2]=[O]"
measurement_kind = "TGI"
result_value = "> 100 µM"


* * *

Recorded TGI values for a group of compounds are listed next.
System: MDA-MB-435
TEST_METHOD_NOTES: NCI tumour cell line growth inhibition, 48 h
MEASUREMENT_KIND: TGI

[[record]]
compound = "c1ccc2c(c1)CC1c3[nH]c4ccccc4c3CCN21 (stereo not drawn)"
measurement_kind = "TGI"
result_value = "> 10 µM"

[[record]]
compound = "CCCCCCCCCCCCCCCCP(=O)(O)OP(=O)(O)OCC1OC(n2ccc(N)nc2=O)C(O)C1O (stereo not drawn)"
measurement_kind = "TGI"
result_value = "> 100 µM"

[[record]]
compound = "Cn1c(N)c(/C=N/NC(=O)CC#N)c(=O)n(C)c1=O"
measurement_kind = "TGI"
result_value = "> 100 µM"


* * *

Recorded TGI values for a group of molecules are listed next.
Tested on: PC-3 prostate
TEST_METHOD_NOTES: NCI tumour cell line growth inhibition, 48 h
MEASUREMENT_KIND: TGI

[[record]]
molecule = "CC1CN=C(c2cccc(OCc3ccc(COc4cccc(C5=NCC(C)N5)c4)cc3)c2)N1 (stereo not drawn)"
experimental_target = "PC-3 prostate"
result_value = "> 100 µM"

[[record]]
molecule = "CC1Cc2c(N(C)C)ncnc2N(C)c2ccc(Cl)cc21 (stereo not drawn)"
experimental_target = "PC-3 prostate"
result_value = "81.6 µM"

[[record]]
molecule = "CC1(CC(=O)O)OC2CCCCCC2O1 (stereo not drawn) (tested in a mixture with another compound)"
experimental_target = "PC-3 prostate"
result_value = "> 100 µM"

[[record]]
molecule = "CCCCCCCCCCCCCCCCOCC(CC(F)(F)P(=O)(O)O)OC(C)=O (stereo not drawn)"
experimental_target = "PC-3 prostate"
result_value = "> 50 µM"

[[record]]
molecule = "CC1=NN(c2nc(N)nc(/C(C#N)=C/c3ccncc3)n2)C(C)(C)C1"
experimental_target = "PC-3 prostate"
result_value = "> 100 µM"

[[record]]
molecule = "CCOC(=O)/C=C1\\Nc2ccccc2C12CCc1c([nH]c3ccccc13)C2C(=O)OCC (stereo not drawn)"
experimental_target = "PC-3 prostate"
result_value = "> 100 µM"

[[record]]
molecule = "c1ccc2c(c1)nc(NCCN1CCNCC1)c1c3ccccc3[nH]c21"
experimental_target = "PC-3 prostate"
result_value = "1.97 µM"

[[record]]
molecule = "O=C(Cn1c2ccc(Br)cc2c2nc3ccccc3nc21)NC1CCCCC1"
experimental_target = "PC-3 prostate"
result_value = "> 100 µM"

[[record]]
molecule = "Cc1ncc([N+](=O)[O-])n1CCN=[N+]=[N-]"
experimental_target = "PC-3 prostate"
result_value = "> 100 µM"

[[record]]
molecule = "N#Cc1c(=O)c2cccnc2n2c1[nH]c1ccccc12"
experimental_target = "PC-3 prostate"
result_value = "> 100 µM"

[[record]]
molecule = "COc1ccc2c(c1O)[C@@]13C=C(O)C(=O)C=C1[C@@H](C2)N(C)CC3"
experimental_target = "PC-3 prostate"
result_value = "> 100 µM"

[[record]]
molecule = "Cc1cc(S(=O)(=O)Nc2n[nH]c(Nc3ccccc3)n2)c(S)cc1Cl"
experimental_target = "PC-3 prostate"
result_value = "> 10 µM"

[[record]]
molecule = "CC1(C)OC[C@@H](/C=C\\CCO[Si](c2ccccc2)(c2ccccc2)C(C)(C)C)N1C(=O)c1ccccc1"
experimental_target = "PC-3 prostate"
result_value = "> 100 µM"

